Tested on: TRPC4 (mouse), co-expressed with 5HT1a in HEK293
measurement.notes: enhancement of serotonin-evoked TRPC4 response – cell-based, second counter screen, HEK293 TRPC4/5HT1a, Fluo-4, counter-screen for TRPC4 potentiator project, confirmation (AID 434979)
study.conditions: Fluo-4 calcium flux, at 10 µM, serotonin added at its EC20 dose
Calls of active or inactive are those of the source.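 Rule for the calls: active = signal rise over 3 SD above mean of control wells given weak agonist, in both repeats and first screen; inactive = the rest.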
Can you answer with just one of these options? Y = active, N = inactive

# lookup: test call for Cc1ccc(Cl)cc1N1CCN(Cc2nc3ccsc3c(=O)[nH]2)CC1
N

What about CCCc1c(-c2ccc(O)cc2)nn(-c2ccc(O)cc2)c1-c1ccc(O)cc1 ?
Y

Another compound to check: CN(C)c1ccc(-c2sc(Nc3ccccc3)n[n+]2-c2ccc(F)cc2)cc1
N

How about this compound: CC1CCC2C(C1)c1sc(=O)[nH]c1SC2(C)C (stereo not given)
N

Similarly, COc1ccc(CN(C2CCCCC2C)S(=O)(=O)c2ccc(S(=O)(=O)N(C)C)cc2)cc1OC (stereo not given) ?
Y

Now this one: COc1ccc(C(CNC(=O)c2cc(C)on2)N(C)C)cc1 (stereo not given)
N

Similarly, CCOc1ccc(Nc2nc(Cc3nnc(SCC(=O)c4ccc(C)cc4)o3)cs2)cc1 ?
Y

Same question, CN(C)CCCCOc1cccc(Br)c1 this time
Y

Also CCN1CCN(c2ccc(S(=O)(=O)N3CCCCC3)cc2NC(=O)c2cccc(Cl)c2)CC1 ?
Y

What about CCOc1ccccc1C1CC(c2ccc(Cl)cc2)Nc2nc(N)nn21 (stereo not given) ?
N

Field entry: Cc1ccc(/C=N/NC(=O)C2COc3ccccc3O2)s1 (stereo not given)
Y

What would you report for Cc1ncsc1CCOC(=O)c1cccc([N+](=O)[O-])c1 ?
N

One more compound: c1coc(CN=C2NC(=NCc3ccco3)c3ccccc32)c1
N

What about this compound? OCCNc1nc(Nc2ccccc2)nc2ccccc12
N

Lookup COc1ccc(CNc2ccc(Cl)cc2)cc1Cn1ccnc1
N

Next: CCCCCCCNC(=O)COc1ccc2c(c1)C(=O)CC(C)(C)O2
N

And Cc1cccc(C(=O)OC2CCCN(C)C2)c1C (stereo not given) ?
N

Another: C=CCOc1ccc(Br)cc1/C=N/O
N

Also CSCC[C@H](NC(=O)N1CCn2c1nc1ccccc12)C(=O)NCc1ccc(F)cc1 , if possible.
N

Then this compound: CCn1c(NCc2c[nH]c3ccccc23)nc2ccccc21
N

What do you have for CCOP(=O)(OCC)c1nc(-c2ccc(Cl)cc2Cl)oc1N1CCCCC1 ?
Y

Proceed to Cc1cccc(-c2nnc(SCc3nc4ccccc4[nH]3)n2Cc2ccco2)c1
N

Input NS(=O)(=O)c1ccc(CCNCc2cc(Br)ccc2OCc2ccccc2)cc1
N

Field entry: Cc1ccc(SC(CC(=O)c2ccc(C(C)(C)C)cc2)C(=O)O)cc1 (stereo not given)
N

Note, next up: COc1ccc(/C=N/Nc2nc3ccccc3s2)cc1O
Y

And what about the compound O=C(CN1CCCCC1)Nc1ccccc1Oc1ccccc1 ?
N

Cool, now CN(C)C(CNC(=O)c1ccc2nc[nH]c2c1)c1ccccc1 (stereo not given)
N

Now consider Nc1c(C(=O)c2ccccc2)sc2nsc(SCCN3CCCC3)c12 .
N

Same question, COc1ccc2c(c1)C=C(CN1CCC(CO)(CCc3ccccc3)CC1)CO2 this time
N

Next compound: Cc1ccc(-c2nn(-c3ccccc3)cc2C(=O)Nc2ccc(C(=O)O)cc2)cc1
N

Again, but for Cc1c(CCOC(=O)c2ccccc2)sc[n+]1CC(=O)c1ccc(Br)cc1
N

Same again, this time with CN1CCN(CC#CCn2c3ccccc3c3ccccc32)CC1
Y

Next entry: CCN1CCN(c2ccc(S(=O)(=O)N3CCOCC3)cc2NC(=O)c2ccccc2OC(F)F)CC1
N

Next record, please: Cc1ccc(NC(=O)c2cc(N3C(=O)C=CC3=O)ccc2N2CCOCC2)cc1Cl
N

Ok, now CCOC(=O)c1cc(C#N)c(N2CCCCC2)nc1-c1ccccc1
N

Likewise for CC(C)c1ccc(C(C)NCCS(=O)(=O)c2ccc(Br)cc2)cc1 (stereo not given) ?
Y

Now consider Cc1cccc(N2CCN(C(=O)C3(S(=O)(=O)c4ccc(Cl)cc4)CC3)CC2)c1C .
Y

Record: Cn1c(=O)c2c(nc(CN3CCc4ccccc4C3)n2Cc2ccccc2F)n(C)c1=O
N

Also Cc1nn(-c2cccc(Cl)c2)c2nc(C(F)(F)F)[nH]c(=O)c12 , if possible.
N

Likewise for CSCCNC(=O)c1ccc(OC2CCN(CCc3ccccc3)CC2)cc1 ?
N

====

assayed.system: Short transient receptor potential channel 4 (Mus musculus) (UniProt Q9QUQ5)
Sequence (Q9QUQ5 whole entry, looked up): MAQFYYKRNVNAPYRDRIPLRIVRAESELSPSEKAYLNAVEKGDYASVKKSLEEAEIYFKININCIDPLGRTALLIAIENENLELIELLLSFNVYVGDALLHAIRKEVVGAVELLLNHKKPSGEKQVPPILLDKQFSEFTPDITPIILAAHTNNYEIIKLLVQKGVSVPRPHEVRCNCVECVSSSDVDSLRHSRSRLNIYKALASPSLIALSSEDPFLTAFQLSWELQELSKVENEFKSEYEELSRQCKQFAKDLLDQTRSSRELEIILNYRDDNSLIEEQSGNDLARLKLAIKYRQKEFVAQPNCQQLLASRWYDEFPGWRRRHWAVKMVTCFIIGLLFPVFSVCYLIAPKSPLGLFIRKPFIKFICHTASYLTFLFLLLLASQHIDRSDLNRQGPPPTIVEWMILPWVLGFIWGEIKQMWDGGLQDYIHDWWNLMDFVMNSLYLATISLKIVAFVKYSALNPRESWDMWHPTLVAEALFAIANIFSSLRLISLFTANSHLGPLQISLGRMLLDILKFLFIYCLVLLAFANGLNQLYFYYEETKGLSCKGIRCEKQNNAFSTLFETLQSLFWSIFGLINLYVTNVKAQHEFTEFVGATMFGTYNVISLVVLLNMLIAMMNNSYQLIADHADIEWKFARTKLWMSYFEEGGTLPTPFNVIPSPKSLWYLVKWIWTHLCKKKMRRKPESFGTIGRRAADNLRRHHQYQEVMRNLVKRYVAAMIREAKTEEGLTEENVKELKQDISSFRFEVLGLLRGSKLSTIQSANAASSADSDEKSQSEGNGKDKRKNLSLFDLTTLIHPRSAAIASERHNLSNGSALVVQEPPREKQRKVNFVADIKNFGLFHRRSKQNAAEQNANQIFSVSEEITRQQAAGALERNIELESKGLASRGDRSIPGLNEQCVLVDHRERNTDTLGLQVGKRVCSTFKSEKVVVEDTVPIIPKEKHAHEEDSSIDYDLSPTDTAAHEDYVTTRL
measurement.notes: blockers of DAMGO-evoked TRPC4 calcium flux – cell-based, Fluo4, HEK293 TRPC4beta/mu-opioid, confirmation (AID 2636)
study.conditions: at 10 µM
The source made the active and inactive calls.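 How the source made its calls: active means calcium signal cut by more than 3 SD below the full-agonist control yet still positive, in both repeats and the earlier primary screen; inactive means the rest.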
The reply should name one outcome from T for active, F for inactive

// param item: COc1ccc(-c2csc(NC(=O)Cc3cccc4ccccc34)c2C(=O)O)cc1 ; yields the recorded call
T

Same lookup for CCOC(=O)CSc1nc2ccccc2c(=O)n1C1CCCC1 , please.
F

Moving on to Cc1ccc(C(=O)Nc2nnc(C3=COCCO3)o2)cc1C
T

Repeat with COc1cc2c(cc1OC)C(C)N(C(=O)C(NC(=O)c1ccccc1)C(C)C)CC2 (centres undefined)
F

====

assayed.system: Short transient receptor potential channel 4 (Mus musculus)
measurement.notes: blockers of DAMGO-evoked TRPC4 calcium flux – cell-based, Fluo4, HEK293 TRPC4beta/mu-opioid, confirmation (AID 2636)
study.conditions: at 10 µM
The source made the active and inactive calls.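 The calls were made as follows: active = calcium signal cut by more than 3 SD below the full-agonist control yet still positive, in both repeats and the earlier primary screen; inactive = the rest.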
Please reply with one of these outcomes: y for active, n for inactive

Any idea what this test logged for C=CCn1c(SCCN2CCOCC2)nc2c1c(=O)[nH]c(=O)n2C ?
n

Again, but for CN(C)CCCNC(=O)/C=C/c1ccc(OCc2c(F)cccc2Cl)cc1
n

How about CN(C)CCCN(C(=O)c1ccc(Cl)s1)c1nc2cc3c(cc2s1)OCO3 ?
n

Another compound to check: CC(C)CN(C(=O)COC(=O)COc1ccc2ccccc2c1)c1c(N)n(Cc2ccccc2)c(=O)[nH]c1=O
n

Next entry: O=C(CC(=O)c1c(F)cccc1Cl)c1ccccc1O
n

Next entry: CCC(O)(c1ccc(OC)cc1)C(CN1CCOCC1)c1ccccc1 (stereo not given)
y

Also N#Cc1ccc(-c2ccccc2)nc1SCCN1CCOCC1 , if possible.
n

Another: COc1ccc(CCNCC(O)COc2ccc(OC)cc2C(C)(C)C)cc1 (stereo not given)
n

Cc1oc(-c2ccc(Cl)cc2)nc1CS(=O)CC(=O)NCCCN(C)C1CCCCC1 (stereo not given) ?
n

Would you mind doing CC1CCCN(CCCN2C(=O)C3C(C(=O)Nc4ccc(Cl)cc4)C4C=CC3(O4)C2C(=O)NC2CCCCC2)C1 (stereo not given) as well?
y

Let us now turn to CCCCCc1c(O)nc(SCCN(C)C)[nH]c1=O
n

Consider next the compound Cc1ccc(OCc2cc(C(=O)N(C)CCc3nc4ccccc4[nH]3)no2)cc1C in the same way.
y

Please give the result for COc1ccccc1CCc1nnc(CCC(=O)NCCCOc2cccnc2)o1 too.
y

Same lookup for O=[N+]([O-])c1ccccc1CN1CCN(S(=O)(=O)c2ccccc2)CC1 , please.
n

Thanks! And OCCNCc1cc(Br)ccc1OCc1ccc(F)cc1 ?
y

Lookup O=C(Nc1ccccc1)N1CCN2C(=O)c3ccccc3C12c1ccccc1 (stereo not given)
y

Next compound up: CC(NC(=O)c1ccco1)C(c1cccs1)N1CCN(c2ccccc2)CC1 (stereo not given)
y

Repeat for the following compound: O=C(NCCc1ccccc1)c1cnc2ccccc2n1
n

What about CCCCN=C(Nc1ccc(Cl)cc1)c1cccnc1 ?
y

Follow-up entry: Cc1cc(-c2ccc(C)c(S(=O)(=O)N3CCN(c4ccccn4)CC3)c2)on1
n

N#Cc1ccc(OCC(O)CN2CCN(c3ncc(C(F)(F)F)cc3Cl)CC2)cc1 (stereo not given) , same question.
n

Ok, now COc1ccc(C(=O)C2CCCN(Cc3ccc(Sc4nncn4C)o3)C2)cc1F (stereo not given)
n

Next record, please: COc1cc(OC)c(OC)cc1CCC(C)NCCC(c1ccccc1)c1ccccc1 (stereo not given)
n

Next record, please: CCOC(=O)C1(Cc2cccc(F)c2)CCN(Cc2cnn(CC)c2)CC1
n

Query C/C(CC(=O)N(C(C)C)C(C)C)=N\NC(=O)COc1ccc(Cl)cc1Cl next
y

Try this compound too: CCCCCCCCCC[n+]1cccc2c3ccccc3ccc21
n

Could you do the same for CCOC(=O)C1(CCOC)CCN(C(C)CCc2ccc(OC)cc2)CC1 (stereo not given) , please?
y

// query: CC(C)(C)NCc1cc(Cl)ccc1OCc1cccs1
n

// repeat for Cc1cc(C)c(C)c(OCCCOc2cccc3cccnc23)c1 and report
n

Try this compound next: CCCN(CCC(=O)Nc1cc(OC)cc(OC)c1)CC1CC1
n
